- TEST_DESCRIPTION: Half life in human liver microsomes
- Assay type: ADME, Microsome
METRIC: half-life (min)
Please give a number only; it is taken to be in min.

Example results:
>  <ITEM_SMILES>
COc1cccc(CNC(=O)c2cn(CCN3CCCC3)c3nc(-c4cn[nH]c4)ccc23)c1

>  <METRIC>
half-life

>  <QUANTITATIVE_READOUT>
21

$$$$
>  <ITEM_SMILES>
COc1cccc(CNC(=O)c2cn(CCCO)c3cc(-c4cn[nH]c4)ccc23)c1

>  <METRIC>
half-life

>  <QUANTITATIVE_READOUT>
21

$$$$
>  <ITEM_SMILES>
COc1cccc(CNC(=O)c2cn(C)c3cc(-c4cn[nH]c4)ccc23)c1

>  <METRIC>
half-life

>  <QUANTITATIVE_READOUT>
9

$$$$
>  <ITEM_SMILES>
COc1cccc(CN(C(=O)c2cc3ccc(-c4cn[nH]c4)nc3[nH]2)C2CC2)c1

>  <METRIC>
half-life

>  <QUANTITATIVE_READOUT>
27

$$$$
>  <ITEM_SMILES>
COc1cccc(CNC(=O)c2[nH]c3nc(-c4cn[nH]c4)ccc3c2CN2CCOCC2)c1

>  <METRIC>
half-life

>  <QUANTITATIVE_READOUT>
4

$$$$

Task: For COc1cccc(CNC(=O)c2[nH]c3cc(-c4cn[nH]c4)ccc3c2CN2CCOCC2)c1 , write its half-life.
Output: 8

Task: For COc1cccc(CNC(=O)c2cn(CCN(C)C)c3cc(-c4cn[nH]c4)ccc23)c1 , write its half-life.
Output: 20

Task: For COc1cccc(CNC(=O)c2[nH]c3cc(-c4cn[nH]c4)ccc3c2CN(C)C)c1 , write its half-life.
Output: 68

Task: For COc1cccc(CNC(=O)c2cc3ccc(-c4cn[nH]c4)nc3n2C)c1 , write its half-life.
Output: 68

---

# reported inhibition at 10 µM; entries follow
- SUBJECT_OF_TEST: CYP1A2 (Homo sapiens, UniProt P05177)
- Sequence (P05177 whole entry): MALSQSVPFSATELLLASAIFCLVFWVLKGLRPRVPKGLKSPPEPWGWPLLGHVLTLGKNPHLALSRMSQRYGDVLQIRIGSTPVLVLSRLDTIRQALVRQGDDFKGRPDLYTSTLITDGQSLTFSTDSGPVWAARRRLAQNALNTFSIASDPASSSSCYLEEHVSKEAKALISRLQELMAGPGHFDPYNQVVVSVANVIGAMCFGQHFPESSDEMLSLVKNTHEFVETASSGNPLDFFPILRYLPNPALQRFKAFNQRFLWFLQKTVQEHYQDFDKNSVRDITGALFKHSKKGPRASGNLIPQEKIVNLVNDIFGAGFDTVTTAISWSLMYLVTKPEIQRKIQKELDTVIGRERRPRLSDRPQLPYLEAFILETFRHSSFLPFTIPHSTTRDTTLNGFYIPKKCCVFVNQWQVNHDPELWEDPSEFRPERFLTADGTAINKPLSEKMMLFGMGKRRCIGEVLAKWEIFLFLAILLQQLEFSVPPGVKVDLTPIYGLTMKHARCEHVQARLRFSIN
- TEST_DESCRIPTION: Inhibition of CYP1A2 at 10 uM
- Assay type: ADME
Hey, just the number and the unit after it is fine.

Example results:
>  <ITEM_SMILES>
COc1cccc(CN(CCN(C)C)C(=O)c2cn(C)c3cc(-c4cn[nH]c4)ccc23)c1

>  <RESULT>
3%

$$$$
>  <ITEM_SMILES>
COc1cccc(CNC(=O)c2cn(CCCO)c3cc(-c4cn[nH]c4)ccc23)c1

>  <RESULT>
71%

$$$$
>  <ITEM_SMILES>
COc1cccc(CNC(=O)c2cn(CCN3CCCC3)c3nc(-c4cn[nH]c4)ccc23)c1

>  <RESULT>
9%

$$$$

Task: Find inhibition at 10 µM for COc1cccc(CN(C)C(=O)c2c[nH]c3cc(-c4cn[nH]c4)ccc23)c1 on CYP1A2 (Homo sapiens, UniProt P05177) and write it down.
Output: 70%

Task: Find inhibition at 10 µM for COc1cccc(CNC(=O)c2[nH]c3cc(-c4cn[nH]c4)ccc3c2CN2CCN(C)CC2)c1 on CYP1A2 (Homo sapiens, UniProt P05177) and write it down.
Output: 62%

---

# reported half-life; entries follow
- TEST_DESCRIPTION: Half life in human liver microsomes
- Assay type: ADME, Microsome
Please give a number only; it is taken to be in min.

Example results:
>  <ITEM_SMILES>
COc1cccc(CN(C(=O)c2c[nH]c3nc(-c4cn[nH]c4)ccc23)C2CC2)c1

>  <half-life (min)>
9

$$$$
>  <ITEM_SMILES>
COc1cccc(CN(CCN2CCCC2)C(=O)c2cc3ccc(-c4cn[nH]c4)cc3[nH]2)c1

>  <half-life (min)>
49

$$$$
>  <ITEM_SMILES>
COc1cccc(CN(C)C(=O)c2c[nH]c3cc(-c4cn[nH]c4)ccc23)c1

>  <half-life (min)>
13

$$$$
>  <ITEM_SMILES>
COc1cccc(CNC(=O)c2cn(-c3ccccc3)c3cc(-c4cn[nH]c4)ccc23)c1

>  <half-life (min)>
10

$$$$
>  <ITEM_SMILES>
COc1cccc(CN(C)C(=O)c2cc3ccc(-c4cn[nH]c4)cc3[nH]2)c1

>  <half-life (min)>
46

$$$$

Task: For COc1cccc(CN(CCCN(C)C)C(=O)c2cn(C)c3cc(-c4cn[nH]c4)ccc23)c1 , write its half-life.
Output: 14

Task: For COc1cccc(CN(C)C(=O)c2cc3ccc(-c4cn[nH]c4)nc3[nH]2)c1 , write its half-life.
Output: 24

---

# reported Cmax; entries follow
- TEST_DESCRIPTION: Cmax in rat at 2 mg/kg, po
- Type: ADME, organism-based
- Design: dose 2 mg/kg, route oral
- CONDITION_CONTEXT: in vivo
Hey, just the number and the unit after it is fine.

>  <ITEM_SMILES>
COc1cccc(CNC(=O)c2cc3ccc(-c4cn[nH]c4)nc3n2C)c1

>  <RESULT>
1190 nM

$$$$

Next up:
Task: For COc1cccc(CN(C(=O)c2cc3ccc(-c4cn[nH]c4)nc3[nH]2)C2CC2)c1 , write its Cmax.
Output: 255 nM

---

- SUBJECT_OF_TEST: Rho-associated protein kinase 1 (Homo sapiens, UniProt Q13464)
- Sequence (Q13464 whole entry): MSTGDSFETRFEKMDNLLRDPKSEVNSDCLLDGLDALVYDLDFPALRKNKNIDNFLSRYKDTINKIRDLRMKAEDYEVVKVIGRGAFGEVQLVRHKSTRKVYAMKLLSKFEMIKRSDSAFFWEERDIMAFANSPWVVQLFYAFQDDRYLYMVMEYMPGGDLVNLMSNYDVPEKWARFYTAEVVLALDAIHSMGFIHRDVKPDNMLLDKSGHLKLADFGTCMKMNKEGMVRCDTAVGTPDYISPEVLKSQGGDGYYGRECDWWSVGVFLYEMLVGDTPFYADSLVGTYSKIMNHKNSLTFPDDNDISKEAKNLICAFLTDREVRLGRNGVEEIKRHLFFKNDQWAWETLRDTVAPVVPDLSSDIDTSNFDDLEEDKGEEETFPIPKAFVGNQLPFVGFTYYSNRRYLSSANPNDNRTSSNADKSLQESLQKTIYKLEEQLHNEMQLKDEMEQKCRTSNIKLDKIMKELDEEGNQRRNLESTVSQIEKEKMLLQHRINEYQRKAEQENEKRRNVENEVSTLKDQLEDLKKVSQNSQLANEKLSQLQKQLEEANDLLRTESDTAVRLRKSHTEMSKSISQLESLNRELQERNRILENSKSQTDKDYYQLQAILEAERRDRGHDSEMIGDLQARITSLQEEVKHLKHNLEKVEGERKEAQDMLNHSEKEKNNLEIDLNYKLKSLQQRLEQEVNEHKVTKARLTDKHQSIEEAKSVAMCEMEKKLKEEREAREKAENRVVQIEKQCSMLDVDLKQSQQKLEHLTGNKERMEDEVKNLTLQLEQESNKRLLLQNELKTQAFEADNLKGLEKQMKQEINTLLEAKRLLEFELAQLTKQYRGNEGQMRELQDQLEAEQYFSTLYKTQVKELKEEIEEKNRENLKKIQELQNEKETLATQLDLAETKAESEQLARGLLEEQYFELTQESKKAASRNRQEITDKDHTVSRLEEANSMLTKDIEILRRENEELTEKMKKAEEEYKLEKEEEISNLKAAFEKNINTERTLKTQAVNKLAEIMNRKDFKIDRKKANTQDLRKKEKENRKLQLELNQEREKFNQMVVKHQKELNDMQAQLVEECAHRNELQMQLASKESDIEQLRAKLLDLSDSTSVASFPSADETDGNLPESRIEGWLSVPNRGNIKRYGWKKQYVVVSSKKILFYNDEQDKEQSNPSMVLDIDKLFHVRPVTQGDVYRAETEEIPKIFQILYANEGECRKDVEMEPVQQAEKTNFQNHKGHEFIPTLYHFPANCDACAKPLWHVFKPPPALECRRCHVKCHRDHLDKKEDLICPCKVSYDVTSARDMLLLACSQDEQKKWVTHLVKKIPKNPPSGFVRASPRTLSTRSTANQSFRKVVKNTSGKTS
Field: class. Source value: IC50. Ranges: bottom: < 20 nM; middle: ≥ 20 nM and < 100 nM; top: ≥ 100 nM

>  <ITEM_SMILES>
COc1cccc(CN(CCN2CCCC2)C(=O)c2cc3ccc(-c4cn[nH]c4)nc3[nH]2)c1

>  <LABEL>
top

$$$$
>  <ITEM_SMILES>
COc1cccc(CN(CCCN(C)C)C(=O)c2cn(C)c3cc(-c4cn[nH]c4)ccc23)c1

>  <LABEL>
bottom

$$$$
>  <ITEM_SMILES>
COc1cccc(CNC(=O)c2cn(CCN3CCCC3)c3nc(-c4cn[nH]c4)ccc23)c1

>  <LABEL>
middle

$$$$
>  <ITEM_SMILES>
COc1cccc(CNC(=O)c2cn(CCN(C)C)c3cc(-c4cn[nH]c4)ccc23)c1

>  <LABEL>
bottom

$$$$
>  <ITEM_SMILES>
COc1cccc(CNC(=O)c2cc3ccc(-c4cn[nH]c4)cc3n2CCCO)c1

>  <LABEL>
middle

$$$$

Task: Categorize the following entry: COc1cccc(CN(C)C(=O)c2cc3ccc(-c4cn[nH]c4)cc3[nH]2)c1
Output: middle

Task: Categorize the following entry: COc1cccc(CNC(=O)c2cc3ccc(-c4cn[nH]c4)nc3n2CCCO)c1
Output: middle

Task: Categorize the following entry: COc1cccc(CNC(=O)c2cc3ccc(-c4cn[nH]c4)nc3n2CC2CC2)c1
Output: top

Task: Categorize the following entry: COc1cccc(CN(C)C(=O)c2cc3ccc(-c4cn[nH]c4)cc3n2C)c1
Output: top

---

- SUBJECT_OF_TEST: CYP1A2 (Homo sapiens, UniProt P05177)
- TEST_DESCRIPTION: Inhibition of CYP1A2 at 10 uM
- Type: ADME
METRIC: inhibition at 10 µM (%)
Please give a number only; it is taken to be in %.

>  <ITEM_SMILES>
COc1cccc(CNC(=O)c2[nH]c3cc(-c4cn[nH]c4)ccc3c2CN2CCOCC2)c1

>  <UNIT_LABEL>
%

>  <inhibition at 10 µM>
46

$$$$
>  <ITEM_SMILES>
COc1cccc(CN(C)C(=O)c2cc3ccc(-c4cn[nH]c4)cc3[nH]2)c1

>  <UNIT_LABEL>
%

>  <inhibition at 10 µM>
-7

$$$$
>  <ITEM_SMILES>
COc1cccc(CNC(=O)c2cn(C)c3nc(-c4cn[nH]c4)ccc23)c1

>  <UNIT_LABEL>
%

>  <inhibition at 10 µM>
-2

$$$$
>  <ITEM_SMILES>
COc1cccc(CN(C)C(=O)c2cc3ccc(-c4cn[nH]c4)nc3[nH]2)c1

>  <UNIT_LABEL>
%

>  <inhibition at 10 µM>
32

$$$$
>  <ITEM_SMILES>
COc1cccc(CNC(=O)c2cn(-c3ccccc3)c3cc(-c4cn[nH]c4)ccc23)c1

>  <UNIT_LABEL>
%

>  <inhibition at 10 µM>
36

$$$$
>  <ITEM_SMILES>
COc1cccc(CNC(=O)c2[nH]c3cc(-c4cn[nH]c4)ccc3c2CN2CCCNCC2)c1

>  <UNIT_LABEL>
%

>  <inhibition at 10 µM>
41

$$$$

Task: Find inhibition at 10 µM for COc1cccc(CN(C)C(=O)c2cn(C)c3cc(-c4cn[nH]c4)ccc23)c1 on CYP1A2 (Homo sapiens, UniProt P05177) and write it down.
Output: 23

Task: Find inhibition at 10 µM for COc1cccc(CNC(=O)c2[nH]c3nc(-c4cn[nH]c4)ccc3c2CN2CCOCC2)c1 on CYP1A2 (Homo sapiens, UniProt P05177) and write it down.
Output: 7

Task: Find inhibition at 10 µM for COc1cccc(CN(CCN2CCCC2)C(=O)c2cc3ccc(-c4cn[nH]c4)cc3[nH]2)c1 on CYP1A2 (Homo sapiens, UniProt P05177) and write it down.
Output: -2
